Exercise: state measured parental ratio for each of the binders provided.
# target_of_assay: human PD-L1 (human) (UniProt Q9NZQ7)
# Sequence (Q9NZQ7 19-290): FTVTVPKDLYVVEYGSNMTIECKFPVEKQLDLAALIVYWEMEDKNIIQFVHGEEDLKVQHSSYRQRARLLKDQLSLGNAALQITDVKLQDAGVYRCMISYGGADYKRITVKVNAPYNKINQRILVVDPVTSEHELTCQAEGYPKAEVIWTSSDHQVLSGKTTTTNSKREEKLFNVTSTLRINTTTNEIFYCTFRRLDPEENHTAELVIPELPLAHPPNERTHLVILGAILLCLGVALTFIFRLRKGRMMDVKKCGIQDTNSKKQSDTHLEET
# method: flow cytometry, transfected Expi293F cells
Answers are plain numbers.

- binder: "CD80 R29D/Y31L/Q33H/K36G/M38I/T41A/M43R/M47T/L70Q/E81V/K89N/A91T/F92P/K93V/R94L/I118V/T120S/I127T/T130A ECD-Fc (Fc fusion) VIHVTKEVKEVATLSCGHNVSVEELAQTDILWHKEGKIVLAMRSGDTNIWPEYKNRTIFDITNNLSIVIQALRPSDEGTYVCVVLKYENDTPVLEHLAEVTLSVKADFPTPSISDFEVPSSNIRRITCSASGGFPEPHLSWLENGEELNAINTTVSQDPETELYAVSSKLDFNMTTNHSFMCLIKYGHLRVNQTFNWNTTKQEHFPDN"
  assay_value: 0.05
- binder: "CD80 C16S/H18L/R29D/Y31L/Q33H/K36G/M38I/T41A/M43R/M47T/E81V/L85R/K89N/A91T/F92P/K93V/R94L/T110A/I118V/H188D ECD-Fc (Fc fusion) VIHVTKEVKEVATLSSGLNVSVEELAQTDILWHKEGKIVLAMRSGDTNIWPEYKNRTIFDITNNLSIVILALRPSDEGTYVCVVRKYENDTPVLEHLAEVTLSVKADFPAPSISDFEVPTSNIRRIICSTSGGFPEPHLSWLENGEELNAINTTVSQDPETELYAVSSKLDFNMTTNHSFMCLIKYGDLRVNQTFNWNTTKQEHFPDN"
  assay_value: 0.03
- binder: "CD80 R29D/Y31L/Q33H/K36G/M38I/T41A/M43R/M47T/E81V/L85R/K89N/A91T/F92P/K93V/R94L/I118V/T120S/T130A/K169E/M174T ECD-Fc (Fc fusion) VIHVTKEVKEVATLSCGHNVSVEELAQTDILWHKEGKIVLAMRSGDTNIWPEYKNRTIFDITNNLSIVILALRPSDEGTYVCVVRKYENDTPVLEHLAEVTLSVKADFPTPSISDFEVPSSNIRRIICSASGGFPEPHLSWLENGEELNAINTTVSQDPETELYAVSSELDFNTTTNHSFMCLIKYGHLRVNQTFNWNTTKQEHFPDN"
  assay_value: 0.06

Hey, can you go through the list below and give me parental ratio for every item?
1. CD80 Y53C/L85R/K89N/A91T/F92P/K93V/R94L/I118V/T120S/I127T/T130A/K169E ECD-Fc (Fc fusion) VIHVTKEVKEVATLSCGHNVSVEELAQTRIYWQKEKKMVLTMMSGDMNIWPECKNRTIFDITNNLSIVILALRPSDEGTYECVVRKYENDTPVLEHLAEVTLSVKADFPTPSISDFEVPSSNIRRITCSASGGFPEPHLSWLENGEELNAINTTVSQDPETELYAVSSELDFNMTTNHSFMCLIKYGHLRVNQTFNWNTTKQEHFPDN
2. CD80 R29D/Y31L/Q33H/K36G/M38I/T41A/M43R/M47T/L70Q/D76G/A91G/S103L/I118V/T120S/I127T/T130A ECD-Fc (Fc fusion) VIHVTKEVKEVATLSCGHNVSVEELAQTDILWHKEGKIVLAMRSGDTNIWPEYKNRTIFDITNNLSIVIQALRPSGEGTYECVVLKYEKDGFKREHLAEVTLLVKADFPTPSISDFEVPSSNIRRITCSASGGFPEPHLSWLENGEELNAINTTVSQDPETELYAVSSKLDFNMTTNHSFMCLIKYGHLRVNQTFNWNTTKQEHFPDN
3. CD80 Y53C/L70Q/D90G/T130A/N149D/N152T/H188D ECD-Fc (Fc fusion) VIHVTKEVKEVATLSCGHNVSVEELAQTRIYWQKEKKMVLTMMSGDMNIWPECKNRTIFDITNNLSIVIQALRPSDEGTYECVVLKYEKGAFKREHLAEVTLSVKADFPTPSISDFEIPTSNIRRIICSASGGFPEPHLSWLENGEELDAITTTVSQDPETELYAVSSKLDFNMTTNHSFMCLIKYGDLRVNQTFNWNTTKQEHFPDN
4. CD80 H18L/R29D/Y31L/Q33H/K36G/M38I/T41A/M43R/M47T/E81V/L85R/K89N/A91T/F92P/K93V/R94L/F116S/T130A/H188D ECD-Fc (Fc fusion) VIHVTKEVKEVATLSCGLNVSVEELAQTDILWHKEGKIVLAMRSGDTNIWPEYKNRTIFDITNNLSIVILALRPSDEGTYVCVVRKYENDTPVLEHLAEVTLSVKADFPTPSISDSEIPTSNIRRIICSASGGFPEPHLSWLENGEELNAINTTVSQDPETELYAVSSKLDFNMTTNHSFMCLIKYGDLRVNQTFNWNTTKQEHFPDN

**Result**
[0.03, 0.04, 0.04, 0.03]
